Data origin: the MegaScale stability set (Tsuboyama et al. 2023)

B1: 2K2A (parent)
chain: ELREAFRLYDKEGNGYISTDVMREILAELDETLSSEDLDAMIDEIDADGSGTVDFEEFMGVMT

Variants of: B1
Experiment: folding stability dG (cDNA display proteolysis); higher = more stable
Details: PBS, room temperature
TEST READOUT: folding stability dG (kcal/mol)
Dear colleague, please return just the value in kcal/mol, with no unit written.

Find the recorded folding stability dG belonging to "E44F" and report it.
2.17

Query "L2E" next
0.678

Query "I25Y" next
0.879

Query "G15T" next
0.259

Query "E31L" next
2

Query "T32D" next
1.42

Query "N14P" next
-0.347

Query "A40Q" next
1.8

Query "D20A" next
2.28

Query "L8T" next
1.94

Query "F58M" next
0.426

Query "L33E" next
-0.382

Query "E44R" next
2.16

Query "D10L" next
1.26

Query "V61P" next
0.265

Query "E28I" next
1.85

Query "E57H" next
2.18

Query "S34W" next
0.76

Query "D39V" next
0.996

Query "T19F" next
2.18

Query "I42C" next
0.098

Query "D20S" next
2.26

Query "I17Y" next
-0.493

Query "K11S" next
1.74

Query "R7L" next
1.93

Query "R7Q" next
1.96

Query "G15Y" next
0.571

Query "E4K" next
1.64

Query "D48R" next
1.52

Query "E31S" next
2.28

Query "F58A" next
0.332

Query "F58N" next
-0.854

Query "F58I" next
0.406

Query "V21Q" next
2.36

Query "E31R" next
2.41

Query "M59G" next
0.537

Query "I45F" next
1.21

Query "L29D" next
0.372

Query "L26W" next
0.837

Query "R23L" next
0.522

Query "E24G" next
2.08

Query "L2C" next
2.73

Query "G49K" next
1.99

Query "E31W" next
1.98

Query "S34A" next
1.26

Query "T19R" next
1.86

Query "I42Q" next
-0.244

Query "G60S" next
2.29

Query "E56F" next
2.04

Query "Y9K" next
0.775

Query "L8M" next
2.05

Query "L29R" next
2.12

Query "E12Y" next
1.2

Query "D48Q" next
1.31

Query "D48G" next
1.37

Query "M62H" next
0.762

Query "I17M" next
0.435

Query "N14M" next
1.78

Query "F6Y" next
0.586

Query "L33R" next
1.36
